Measured relative viability by item
# System: NCI-H1651
# Test method notes: relative viability (nuclei count vs DMSO), 5 days (fraction); higher = more cells survive
# Particulars: first compound 0.253 µM
The answer should be a number; do not append a unit.

Completed entries (count: 10):
[
  {
    "Compound": "Oc1nc(-c2ccc(C(F)(F)F)cc2)nc2c1CSCC2 [XAV939] + N=C(N)NC(=N)NCCc1ccccc1 [Phenformin] (partner 250 µM)",
    "relative viability": 0.31
  },
  {
    "Compound": "Oc1nc(-c2ccc(C(F)(F)F)cc2)nc2c1CSCC2 [XAV939] + CC1(C)CCC(c2ccc(Cl)cc2)=C(CN2CCN(c3ccc(C(=O)NS(=O)(=O)c4ccc(N[C@H](CCN5CCOCC5)CSc5ccccc5)c(S(=O)(=O)C(F)(F)F)c4)cc3)CC2)C1 [Navitoclax] (partner 0.5 µM)",
    "relative viability": 1.01
  },
  {
    "Compound": "C=C1C(=O)O[C@@H](CCCCCCCC)[C@@H]1C(=O)O [C-75] + CC(=O)Nc1cccc(-n2c(=O)n(C3CC3)c(=O)c3c(Nc4ccc(I)cc4F)n(C)c(=O)c(C)c32)c1 [Trametinib] (partner 0.02 µM)",
    "relative viability": 0.802
  },
  {
    "Compound": "Oc1nc(-c2ccc(C(F)(F)F)cc2)nc2c1CSCC2 [XAV939] + O=C(c1cc(Cc2n[nH]c(=O)c3ccccc23)ccc1F)N1CCN(C(=O)C2CC2)CC1 [Olaparib] (partner 8 µM)",
    "relative viability": 0.19
  },
  {
    "Compound": "Oc1nc(-c2ccc(C(F)(F)F)cc2)nc2c1CSCC2 [XAV939] + C[C@@H](Oc1cc(-c2cnn(C3CCNCC3)c2)cnc1N)c1c(Cl)ccc(F)c1Cl [Crizotinib] (partner 1 µM)",
    "relative viability": 0.798
  },
  {
    "Compound": "C=C1C(=O)O[C@@H](CCCCCCCC)[C@@H]1C(=O)O [C-75] + N=C(N)NC(=N)NCCc1ccccc1 [Phenformin] (partner 250 µM)",
    "relative viability": 0.315
  },
  {
    "Compound": "Oc1nc(-c2ccc(C(F)(F)F)cc2)nc2c1CSCC2 [XAV939] + Cc1nc(Nc2ncc(C(=O)Nc3c(C)cccc3Cl)s2)cc(N2CCN(CCO)CC2)n1 [Dasatinib] (partner 0.075 µM)",
    "relative viability": 0.366
  },
  {
    "Compound": "Oc1nc(-c2ccc(C(F)(F)F)cc2)nc2c1CSCC2 [XAV939] + CC(C)C[C@H](NC(=O)[C@H](Cc1ccccc1)NC(=O)c1cnccn1)B(O)O [Bortezomib] (partner 0.002 µM)",
    "relative viability": 0.905
  },
  {
    "Compound": "Oc1nc(-c2ccc(C(F)(F)F)cc2)nc2c1CSCC2 [XAV939] + CS(=O)(=O)CCNCc1ccc(-c2ccc3ncnc(Nc4ccc(OCc5cccc(F)c5)c(Cl)c4)c3c2)o1 [Lapatinib] (partner 2 µM)",
    "relative viability": 0.758
  },
  {
    "Compound": "Oc1nc(-c2ccc(C(F)(F)F)cc2)nc2c1CSCC2 [XAV939] + O=C(CCCCCCC(=O)Nc1ccccc1)NO [Vorinostat] (partner 1 µM)",
    "relative viability": 0.529
  }
]

Look up relative viability with NCI-H1651 for this compound: Oc1nc(-c2ccc(C(F)(F)F)cc2)nc2c1CSCC2 [XAV939] + Nc1nc2[nH]cc(CCc3ccc(C(=O)N[C@@H](CCC(=O)O)C(=O)O)cc3)c2c(=O)[nH]1 [Pemetrexed] (partner 0.2 µM)
0.513
